All figures here come from ChEMBL document CHEMBL4406837.

Consider the following compounds; for each one, report its Ki.
- studyTarget: CDK7/Cyclin H/MNAT1 (Homo sapiens)
- Sequence (P51946 whole entry): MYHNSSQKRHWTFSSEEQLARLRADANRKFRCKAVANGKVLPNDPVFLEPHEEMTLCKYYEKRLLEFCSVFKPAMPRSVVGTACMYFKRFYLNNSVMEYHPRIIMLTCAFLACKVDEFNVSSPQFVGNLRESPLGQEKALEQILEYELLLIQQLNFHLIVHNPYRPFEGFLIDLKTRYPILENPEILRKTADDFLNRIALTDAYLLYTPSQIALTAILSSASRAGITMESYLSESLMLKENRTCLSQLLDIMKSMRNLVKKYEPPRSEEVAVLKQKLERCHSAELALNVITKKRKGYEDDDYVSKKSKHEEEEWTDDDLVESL
- Sequence (P50613 whole entry): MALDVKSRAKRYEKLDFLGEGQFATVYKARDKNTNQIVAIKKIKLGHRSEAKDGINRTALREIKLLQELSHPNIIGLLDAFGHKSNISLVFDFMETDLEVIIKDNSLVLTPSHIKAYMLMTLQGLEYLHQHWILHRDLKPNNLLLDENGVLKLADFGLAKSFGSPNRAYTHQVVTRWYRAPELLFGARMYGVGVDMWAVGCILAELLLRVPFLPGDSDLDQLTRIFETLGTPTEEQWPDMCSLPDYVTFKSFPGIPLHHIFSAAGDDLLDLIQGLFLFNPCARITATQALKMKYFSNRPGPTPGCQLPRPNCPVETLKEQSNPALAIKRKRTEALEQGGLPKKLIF
- Sequence (P51948 whole entry, further chain): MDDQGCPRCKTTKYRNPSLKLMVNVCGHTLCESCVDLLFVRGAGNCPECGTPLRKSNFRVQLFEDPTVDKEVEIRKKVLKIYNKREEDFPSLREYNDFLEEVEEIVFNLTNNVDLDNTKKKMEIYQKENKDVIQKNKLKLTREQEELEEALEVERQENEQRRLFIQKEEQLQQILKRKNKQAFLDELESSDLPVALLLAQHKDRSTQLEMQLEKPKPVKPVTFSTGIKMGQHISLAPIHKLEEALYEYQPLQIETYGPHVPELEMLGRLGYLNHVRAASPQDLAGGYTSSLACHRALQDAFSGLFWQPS
- protocolText: Competitive irreversible inhibition of CDK7/cyclinH/MAT1 (unknown origin) using 5-FAM YSPTSPSYSPTSPSYSPTSPSKKKK as substrate

Specify the recorded Ki for CN(C)C/C=C/C(=O)Nc1ccc(C(=O)N[C@H]2CCC[C@@H](Nc3ncc(Cl)c(-c4c[nH]c5ccccc45)n3)C2)nc1 , system: CDK7/Cyclin H/MNAT1 (Homo sapiens). 62.5 nM

Fetch value of Ki on CDK7/Cyclin H/MNAT1 (Homo sapiens) for CN(C)C/C=C/C(=O)Nc1ccc(C(=O)N[C@H]2CCC[C@@H](Nc3ncc(Cl)c(-c4c[nH]c5ccccc45)n3)C2)cc1 . 105 nM

Write Ki of CN(C)C/C=C/C(=O)Nc1ccc(C(=O)N[C@@]2(C)CCC[C@@H](Nc3ncc(Cl)c(-c4c[nH]c5ccccc45)n3)C2)nc1 ; system used: CDK7/Cyclin H/MNAT1 (Homo sapiens) 17.4 nM
